- Test system: MOLM-13
- method: MOLM-13 Cellular Growth Inhibition Assay (CellTiter-Glo)
- Format: cell-based
- measurement-parameters: Homo sapiens, 168 h, MOLM-13 cells, 7 days of incubation
readout-label: CC50

Below are worked cases with known answers.
>>> print(df.to_string())
                                   compound  readout_label   meas_value
0  CCS(=O)(=O)N[C@H]1CC[C@H](CN2CCC3(CC2)CN(c2ncnc4ccc(CC(C)c5ccccc5)cc24)C3)CC1 (mixture of isomers) [Compound 59]           CC50       ≤ 1 µM
1  CCS(=O)(=O)Nc1ccc(CN2CCC3(CC2)CN(c2ncnc4ccc(CCc5ccccc5)cc24)C3)cc1 [Compound 52]           CC50    1 to 5 µM
2  CCS(=O)(=O)Nc1ccc(CN2CCC3(CC2)CN(c2ncnc4cc(CC(F)(F)F)ccc24)C3)cc1 [Compound 8]           CC50  10 to 20 µM
3  CCS(=O)(=O)N[C@H]1CC[C@H](CN2CCC3(CC2)CN(c2ncnc4ccc(C#Cc5ccccc5)cc24)C3)CC1 [Compound 53]           CC50   5 to 10 µM
4  CCS(=O)(=O)N[C@H]1CC[C@H](CN2CCC3(CC2)CCN(c2ncnc4ccc(CC(F)(F)F)cc24)CC3)CC1 [Compound 3]           CC50  10 to 20 µM
5  CCS(=O)(=O)Nc1ccc(CN2CCC3(CC2)CN(c2ncnc4ccc(CC(F)(F)F)cc24)C3)cc1 [Compound 7]           CC50    1 to 5 µM

Here is the next item to consider.
Q: Bench note: what CC50 did FC(F)(F)Cc1ccc2ncnc(N3CC4(CCN(Cc5ccc6[nH]ccc6c5)CC4)C3)c2c1 [Compound 90] show?
Ans: 5 to 10 µM

// provenance: patent US20250066358A1
